Below, each entry is listed with its recorded pIC50.
Target: catalytic domain of human Bub1 (amino acids 704-1085) (Homo sapiens)
Construct: catalytic domain of human Bub1 (amino acids 704-1085); His6 (N); made in house; host or cells: Hi5 insect cells
Sequence (O43683 704-1085): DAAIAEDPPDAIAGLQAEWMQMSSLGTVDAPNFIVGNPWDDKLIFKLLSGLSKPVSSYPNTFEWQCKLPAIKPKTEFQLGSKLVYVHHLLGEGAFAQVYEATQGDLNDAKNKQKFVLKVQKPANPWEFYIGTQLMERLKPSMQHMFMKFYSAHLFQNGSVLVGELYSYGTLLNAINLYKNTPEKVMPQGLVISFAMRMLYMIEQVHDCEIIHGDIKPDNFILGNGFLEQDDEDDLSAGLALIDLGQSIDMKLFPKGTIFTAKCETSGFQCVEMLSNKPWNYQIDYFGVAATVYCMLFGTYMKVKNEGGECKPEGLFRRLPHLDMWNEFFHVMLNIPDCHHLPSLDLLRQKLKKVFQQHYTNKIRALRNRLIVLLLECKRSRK
Assay: Bub1 kinase assay (TR-FRET)
Assay type: biochemical
Conditions: 10 μM ATP, 1 μM peptide substrate, TR-FRET; read-out: Biological Assay 1: Bub1 kinase assay median IC50
pIC50: −log10 of the molar value.
Observed property: pIC50

1. CCOc1cc(F)c(Cn2nc(-c3nc(NC(=O)NC4CCCCC4)c(OC)c(Nc4ccncn4)n3)c(C)c2C2CC2)c(F)c1	5.85
2. CCOc1cc(F)c(Cn2nc(-c3nc(N)c(NS(=O)(=O)C(F)(F)F)c(Nc4ccncc4)n3)c(C)c2C2CC2)c(F)c1	8.01
3. CCOc1cc(F)c(Cn2nc(-c3nc(N)c(NC(=O)COC)c(Nc4ccncc4)n3)c(C)c2C2CC2)c(F)c1	7.80
